pEC50 by entry:
Molecular target: T1, hB7-H3 (ELISA antigen of Tables 17 and 20) (human, UniProt Q5ZPR3 29-466, limits assumed)
T1 sequence: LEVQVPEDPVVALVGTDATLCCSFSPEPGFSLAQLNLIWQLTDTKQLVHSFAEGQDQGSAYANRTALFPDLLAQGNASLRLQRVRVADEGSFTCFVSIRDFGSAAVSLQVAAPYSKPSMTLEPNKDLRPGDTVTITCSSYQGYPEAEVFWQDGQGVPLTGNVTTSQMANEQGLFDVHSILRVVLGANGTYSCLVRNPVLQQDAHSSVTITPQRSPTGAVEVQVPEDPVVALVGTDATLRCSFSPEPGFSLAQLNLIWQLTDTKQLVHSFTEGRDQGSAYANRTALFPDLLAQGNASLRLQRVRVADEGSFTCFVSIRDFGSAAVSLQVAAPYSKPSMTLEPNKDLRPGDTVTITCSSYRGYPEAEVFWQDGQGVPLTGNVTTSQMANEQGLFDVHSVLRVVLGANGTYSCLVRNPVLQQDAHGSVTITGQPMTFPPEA
Experiment: ELISA
Please treat pEC50 as minus the base-10 logarithm of the molar concentration.

Give recorded pEC50. huAb3v2.3 (antibody, V domains shown) VH: EVQLVQSGAEVKKPGSSVKVSCKASGYTFSSYWMHWVRQAPGQGLEWIGLIHPWSGSTNYNEMFKNRATLTVDRSTSTAYMELSSLRSEDTAVYYCAGGGRLYFDYWGQGTTVTVSS VL: DIVMTQSPLSLPVTPGEPASISCRSSQSLVHSNQDTYLRWYLQKPGQSPQLLIYKVSNRFSGVPDRFSGSGSGTDFTLKISRVEAEDVGVYYCSQSTHVPYTFGGGTKVEIK
9.96

New cases:
Give recorded pEC50. huAb3v2.8 (antibody, V domains shown) VH: EVQLVQSGAEVKKPGSSVKVSCKASGYTFSSYWMHWVRQAPGQGLEWIGLIHPISGSTNYNEMFKNRATLTVDRSTSTAYMELSSLRSEDTAVYYCAGGGRLYFDYWGQGTTVTVSS VL: DIVMTQSPLSLPVTPGEPASISCRSSQSLVHSNRDTYLRWYLQKPGQSPQLLIYKVSNRFSGVPDRFSGSGSGTDFTLKISRVEAEDVGVYYCSQSTHVPYTFGGGTKVEIK
9.85
